Tested on: Streptococcus pyogenes C203
procedure summary: In vitro antibacterial activity, standard agar-dilution assay
Assay type: cell-based
stated conditions: Streptococcus pyogenes C203; agar dilution; read-out: MIC
Overview of reported MIC across a group of compounds:
Entry rule: numbers only, all in µg/mL.

>>> df
                              smiles_string  observed_measurement
0  [C-]#[N+][C@@H]1[C@@H]2c3c[nH]c4cccc(c34)C(C)(C)[C@H]2C[C@@H](Cl)[C@]1(C)C=C                    16
1  [C-]#[N+][C@@H]1[C@H]2c3c[nH]c4cccc(c34)C(C)(C)[C@H]2C[C@@H](Cl)[C@]1(C)C=C                     2
2  [C-]#[N+][C@@H]1[C@H]2c3c[nH]c4cccc(c34)C(C)(C)[C@@H]2CC[C@]1(C)C=C                    32

Read the next record carefully.
q: Fill in MIC for record C=C[C@@]1(C)[C@H](Cl)C[C@H]2[C@H](c3c[nH]c4cccc(c34)C2(C)C)[C@H]1N=C=S
a: 64

----------
Test system: Streptococcus pyogenes C203
procedure summary: In vitro antibacterial activity, standard agar-dilution assay
Format: cell-based
stated conditions: Streptococcus pyogenes C203; agar dilution; read-out: MIC
measured quantity: MIC

Before answering, review these 2 worked examples.
In [3]: df
Out[3]:
                                   compound  observed_measurement
0  [C-]#[N+][C@@H]1[C@H](c2c[nH]c3ccccc23)[C@@H](C(=C)C)CC[C@]1(C)C=C [Compound 3, Hapalindole C]            > 64 µg/mL
1  C=C[C@@]1(C)CC[C@H](C(=C)C)[C@@H](c2c[nH]c3ccccc23)[C@H]1N=C=S [Compound 4, Hapalindole D]            > 64 µg/mL

Read the next record carefully.
q: Fill in MIC for record C=C[C@@]1(C)[C@H](Cl)C[C@H](C(=C)C)[C@@H](c2c[nH]c3ccccc23)[C@H]1N=C=S [Compound 6, Hapalindole F]
a: > 64 µg/mL

Just for reference, patent US4755610A is where these values come from.
